- target-or-test-system: T1, human A-beta(1-40) peptide, monomeric (BAM) (human, biotin at the C-terminus in capture ELISA, SPR and TR-FRET; not biotinylated where coated directly (Example 7))
- T1 construct: synthetic peptide (Anaspec), TFA/HFIP treated to give monomer; also called monomeric A-beta
- experimental-details: TR-FRET competition; labelled competitor not given
pIC50: −log10 of the molar value.
Entry flag: Satisfied if pIC50 reaches 8; Not satisfied if it does not.

binder	label
ABII011 (VHH, humanized variant of ABII002) VHH: EVQLLESGGGLVLPGGSLRLSCVHSGPTFRTDTMGWFRQAPGKGREFVAAVTWNSGRINYADSVKGRFTVSRDNTRNALYLQMSGLKDEDTAVYYCTAHRFVVGGNRVEDWRYWGQGTLVTVSS	Not satisfied
ABII051 (VHH, humanized variant of ABII050) VHH: EVQLLESGGGLVQPGGSLRLSCAASGRTFNNYNMGWFRQAPGKGREFVAAVSRSGVSTYYADSVKGRFTISRDNAKNAVYLQMNSLRPEDTAIYYCGAAYRGTAINVRRSYDSWGQGTLVTVSS	Not satisfied
ABII003 (VHH, humanized variant of ABII002) VHH: EVQLLESGGGLVLPGGSLRLSCVHSGPTFRTDTMGWFRQAPGKGREFVAAVTWNSGRINYADSVKGRFTVSRDNTRNAAYLQMSGLKDEDTAVYYCTAHRFVVGGNRVEDWRYWGQGTLVTVSS	Satisfied
ABII004 (VHH, humanized variant of ABII002) VHH: EVQLLESGGGLVQPGGSLRLSCVHSGPTFRTDTMGWFRQAPGKGREFVAAVTWNSGRINYADSVKGRFTVSRDNTRNAAYLQMSGLKDEDTAVYYCTAHRFVVGGNRVEDWRYWGQGTLVTVSS	Satisfied
ABII006 (VHH, humanized variant of ABII002) VHH: EVQLLESGGGLVLPGGSLRLSCVASGPTFRTDTMGWFRQAPGKGREFVAAVTWNSGRINYADSVKGRFTVSRDNTRNAAYLQMSGLKDEDTAVYYCTAHRFVVGGNRVEDWRYWGQGTLVTVSS	Not satisfied
ABII026 (VHH, humanized variant of ABII002) VHH: EVQLLESGGGLVQPGGSLRLSCAHSGPTFRTDTMGWFRQAPGKGREFVAAVTWNSGRINYADSVKGRFTISRDNSKNTAYLQMNSLRPEDTAVYYCAAHRFVVGGNRVEDWRYWGQGTLVTVSS	Satisfied
ABII058 (VHH, humanized variant of ABII050) VHH: EVQLLESGGGLVQPGGSLRLSCAASGRTFNNYNMGWFRQAPGKGREFVAAVSRSGVSTYYADSVKGRFTISRDNSKNTLYLQMNSLRPEDTAVYYCAAAYRGTAINVRRSYDSWGQGTLVTVSS	Not satisfied
ABII037 (VHH, humanized variant of ABII002) VHH: EVQLLESGGGLVQPGGSLRLSCVHSGPTFRTDTMGWFRQAPGKGREFVAAVTWNSGRINYADSVKGRFTISRDNSKNTAYLQMNSLRAEDTAVYYCAAHRFVVGGNRVEDWRYWGQGTLVTVSS	Satisfied
ABII012 (VHH, humanized variant of ABII002) VHH: EVQLLESGGGLVLPGGSLRLSCVHSGPTFRTDTMGWFRQAPGKGREFVAAVTWNSGRINYADSVKGRFTVSRDNTRNAAYLQMNGLKDEDTAVYYCTAHRFVVGGNRVEDWRYWGQGTLVTVSS	Satisfied
ABII020 (VHH, humanized variant of ABII002) VHH: EVQLLESGGGLVQPGGSLRLSCAHSGPTFRTDTMGWFRQAPGKGREFVAAVTWNSGRINYADSVKGRFTISRDNSKNTLYLQMNSLRPEDTAVYYCAAHRFVVGGNRVEDWRYWGQGTLVTVSS	Not satisfied
ABII055 (VHH, humanized variant of ABII050) VHH: EVQLLESGGGLVQPGGSLRLSCAASGRTFNNYNMGWFRQAPGKGREFVAAVSRSGVSTYYADSVKGRFTISRDNAKNAVYLQMNSLRPEDTAVYYCGAAYRGTAINVRRSYDSWGQGTLVTVSS	Not satisfied
ABII029 (VHH, humanized variant of ABII002) VHH: EVQLLESGGGLVQPGGSLRLSCVHSGPTFRTDTMGWFRQAPGKGREFVAAVTWNSGRINYADSVKGRFTISRDNSKNTLYLQMNSLRPEDTAVYYCAAHRFVVGGNRVEDWRYWGQGTLVTVSS	Not satisfied
ABII053 (VHH, humanized variant of ABII050) VHH: EVQLLESGGGLVQPGGSLRLSCAASGRTFNNYNMGWFRQAPGKGREFVAAVSRSGVSTYYADSVKGRFTISRDNAKNTVYLQMNSLRPEDTAIYYCGAAYRGTAINVRRSYDSWGQGTLVTVSS	Not satisfied
ABII054 (VHH, humanized variant of ABII050) VHH: EVQLLESGGGLVQPGGSLRLSCAASGRTFNNYNMGWFRQAPGKGREFVAAVSRSGVSTYYADSVKGRFTISRDNAKNALYLQMNSLRPEDTAIYYCGAAYRGTAINVRRSYDSWGQGTLVTVSS	Not satisfied
ABII018 (VHH, humanized variant of ABII002) VHH: EVQLLESGGGLVQPGGSLRLSCVHSGPTFRTDTMGWFRQAPGKGREFVAAVTWNSGRINYADSVKGRFTVSRDNTRNAAYLQMSGLKPEDTAVYYCTAHRFVVGGNRVEDWRYWGQGTLVTVSS	Satisfied

Every entry's value here was drawn from patent US20120058118A1.
